Test system: SF-539 CNS
Assay info: NCI tumour cell line growth inhibition, 48 h
Listed next: entries and their corresponding TGI.
Quantity: TGI

CC(Oc1ccc(OCC2CCCCC2)cc1)C(=O)NCCO (stereo not drawn) : > 100 µM
CCCCCCC/C=C/[C@H]1O[C@]2(O)C(=O)C=C3C[C@@H](O[C@@H]4O[C@H](CO)[C@@H](O)C(O)[C@@H]4O)C[C@@H]3[C@H]2C=C1C (stereo partly drawn) : 5.12 µM
Clc1nc(Cl)c2c3c(sc2n1)CCCC3 : > 100 µM
COC1(OC)N=C(N)C2(C#N)C3(C(=O)N(C(C)C)N=C3C)C12C#N (stereo not drawn) : > 100 µM
C[C@]12CC[C@H]3[C@@H](CCC4=CC(=O)CC[C@@]43C)[C@@H]1CC[C@@H]2C(=O)COS(=O)(=O)c1ccc(Br)cc1 : > 60.7 µM
CCC(CCC(C)C1CCC2C3CC=C4CC(OC5OC(CO)C(O)C(O)C5O)CCC4(C)C3CCC12C)C(C)C (stereo not drawn) : > 100 µM
NC(=O)c1ncn(CCN2CCN(C(=O)NCCCCCCNC(=O)N3CCN(CCn4cnc(C(N)=O)c4N)CC3)CC2)c1N : > 100 µM
Nc1ccccc1NC(=O)c1ccc(CN2CCC/C(=C\c3ccccn3)C2=O)cc1 : > 100 µM
O=C1C(Cl)C2(CC(/C=C/c3ccccc3O)=NN2c2cccc(S(=O)(=O)O)c2)N1c1nc2ccccc2s1 (stereo not drawn) : 36.5 µM
CCOC(=O)/C(N=Nc1ccc(-n2c(C)nc3ccc(Br)cc3c2=O)cc1)=C(/C)O : > 100 µM
O=c1c2ccccc2nc2n1C(c1ccc([N+](=O)[O-])cc1)C2(c1ccccc1)c1ccccc1 (stereo not drawn) : > 100 µM
CCCCCCCCCCCCCCCC(=O)N[C@H](/C=C/[C@H](O)CCCCCCCCCCCCC)CO : > 100 µM
C/C=C(/CCC1NCCC2c3ccccc3NC12)[Si](C)(C)C (stereo not drawn) : 29.5 µM
NNC1=N/C(=C\c2ccco2)C(=O)N1 : > 100 µM
COC(=O)C1=Cc2cc(OC)c(OC)cc2[C@H](c2ccc(OC)c(OC)c2)C1C(=O)OC (stereo partly drawn) : > 100 µM
CCCC[n+]1c(/C=C\c2c(OC)cc(OC)cc2OC)ccc2ccccc21 : 4.65 µM
N#Cc1ccsc1NC(=O)COC(=O)c1cccc(S(=O)(=O)N2CCc3ccccc32)c1 : > 100 µM
O=C(COc1ccc(OCC(=O)NNC2=NC(c3cc(F)c(Cl)cc3Cl)CS2)c(Cl)c1)NNC1=NC(c2cc(F)c(Cl)cc2Cl)CS1 (stereo not drawn) : 64.5 µM

---

Test system: HCC-2998 colon
Assay info: NCI tumour cell line growth inhibition, 48 h
Listed next: entries and their corresponding GI50.
Quantity: GI50

Nc1nc2c(nnn2C2OC(CO)C(O)C2O)c(=O)[nH]1 (stereo not drawn) : 854 nM
COc1ccc(-c2nc(Nc3ccc(-c4nc5ccccc5[nH]4)cc3)nc(N3CCOCC3)n2)cc1 : 3090 nM
CNc1cc2nc3cc(NC)c(C)cc3cc2cc1C : 1600 nM

---

Test system: SNB-78 CNS
Assay info: NCI tumour cell line growth inhibition, 48 h
Quantity: TGI

Cc1cc2nc3ccc(=[N+](C)C)cc-3sc2cc1N : 54.9 µM
COC(C(=O)C(O)C(C)O)C1Cc2cc3cc(OC4CC(OC5CC(O)C(O)C(C)O5)C(O)C(C)O4)c(C)c(O)c3c(O)c2C(=O)C1OC1CC(OC2CC(O)C(OC3CC(C)(O)C(O)C(C)O3)C(C)O2)C(O)C(C)O1 (stereo not drawn) : 0.0214 µg/mL
N#CC(Nc1cccc(C(F)(F)F)c1)c1ccccc1C(F)(F)F (stereo not drawn) : 43 µM
COC(=O)NN1C(C)=C(C(=O)OC)C2(C#N)C(C(=O)OC)=C(C)N(NC(=O)OC)C12N (stereo not drawn) : > 100 µM
O=C(CC1(O)C(=O)Nc2ccccc21)c1ccc(F)cc1 (stereo not drawn) : > 100 µM
CCCC(N)C(=O)c1ccccc1 (stereo not drawn) : > 100 µM
c1cnc2c(c1)-n1cccc1C1(CCSC1)NN2 (stereo not drawn) : > 100 µM
O=C(O)C1CCC(=O)N1S(=O)(=O)c1ccccc1 (stereo not drawn) : > 100 µM
COC(=O)C(CC(C)=O)CS(=O)(=O)CC(=O)C(=O)Nc1cccc([N+](=O)[O-])c1 (stereo not drawn) : > 100 µM
CC1(c2cccc(N)c2)C2C(=O)NC(=O)C1C(=O)NC2=O (stereo not drawn) : > 100 µM
COC(=O)C1=Cc2cc(OC)c(OC)cc2[C@H](c2ccc(OC)c(OC)c2)C1C(=O)OC (stereo partly drawn) : > 100 µM
Cc1ccc(NCC(=O)N2CC(=O)Nc3ccccc32)cc1 : > 100 µM
CCOC(=O)C1=C(C)N(Cc2ccccc2)C(=O)C1CC#N (stereo not drawn) : > 100 µM
